Examples of compounds with documented growth inhibition follow.
# Assay Details: NCI Yeast Anticancer Drug Screen. Data for the mlh1 rad18 strain (AID 175)
# Measurement Conditions: S. cerevisiae mlh1 rad18 strain growth inhibition; at 50.0 µM; hits give high values
The panel holds about 79,000 compounds, 15% with a hit somewhere; the sample as a whole holds those more often. Active and inactive are the calls of the source. Cut-off read from the data, not from the text of the source: active = growth inhibition above about 70%; inactive = the rest.

CC1(C)CC(c2c[nH]c3ccccc23)=CC2=Nc3ccccc3C21O (stereo not drawn)
16.7% (inactive)
C=C(C)CCCC(C)C(O)C=O (stereo not drawn)
-12.7% (inactive)
CC(O)(C1CC1)C(C(=O)O)c1ccccc1 (stereo not drawn)
10.6% (inactive)
Cc1ccc(S(=O)(=O)N(CC(O)c2ccccc2)CC(O)c2ccccc2)cc1 (stereo not drawn)
-8% (inactive)
O/N=C1/CCCCc2ccccc21
-15.2% (inactive)

Identify the reported growth inhibition for the following entry. CC(C)c1cc(C(C)C)c(S(=O)(=O)N/N=C2\CC3CCC2(C)C3(C)C)c(C(C)C)c1 (stereo not drawn)
0.65% (inactive)

Identify the reported growth inhibition for the following entry. CC(C)C(=O)c1ccccc1Cl
-8% (inactive)

Identify the reported growth inhibition for the following entry. CCNCC1COc2ccccc2O1 (stereo not drawn)
-1% (inactive)

Identify the reported growth inhibition for the following entry. CC1c2ccc3ccccc3c2C(=O)c2cccc(Cl)c21 (stereo not drawn)
-1.65% (inactive)

Identify the reported growth inhibition for the following entry. Cc1ccc2c3nc4ccccc4c-3csc2c1
99.3% (active)

---

Examples of compounds with documented growth inhibition follow.
# Assay Details: NCI Yeast Anticancer Drug Screen. Data for the mlh1 rad18 strain (AID 175)
# Measurement Conditions: S. cerevisiae mlh1 rad18 strain growth inhibition; at 50.0 µM; hits give high values
Compounds without any hit were thinned out: in the full panel of roughly 79,000, 15% have a hit.
Provide the reading as a plain figure in %.

Look over these answered cases.
CC12CCCC3(CC(=O)C(C)(C)C3C(=O)C1)C2 (stereo not drawn)
6.2
O=C(/C=C/c1ccccc1)N(Cc1ccccc1)c1ccccc1
95.6
CC(C)(Cc1ccc(Cl)cc1)NC(N)=O
-31.8
CCCCCCCCCCCCCBr
15.8
CC(C)(C)NC(=O)c1cccc(C(=O)NC(C)(C)C)n1
-16.4
C=C1CC(Cn2cc(C)c(=O)[nH]c2=O)(c2ccc(-c3ccccc3)cc2)OC1=O (stereo not drawn)
47.1

Attention now turns to another entry.
Identify the reported growth inhibition for the following entry. C[C@H](N)C(O)/C=C/c1ccccc1 (stereo partly drawn)
-7.05

---

Examples of compounds with documented growth inhibition follow.
# Assay Details: NCI Yeast Anticancer Drug Screen. Data for the mec2-1 strain (AID 157)
# Measurement Conditions: S. cerevisiae mec2-1 strain, at 50.0 µM, hits give high values
About 79,000 compounds went through this panel and 15% of them were active in at least one assay; those are over-represented in the sample as a whole.
Provide the reading as a plain figure in %.

Look over these answered cases.
CC(=O)NNc1nc(C)c(C(/C=C/c2ccc(Cl)cc2)=N/NC(=S)NN)s1
20.4
Cc1cnoc1/N=C1\C=C(Nc2oncc2C)C(=O)c2ccccc21
-6.55

Identify the reported growth inhibition for the following entry. Cc1cc(=O)[nH]c(NN2C(Cl)C(=O)C2c2ccc(Cl)cc2)n1 (configuration not stated)
7.45

Identify the reported growth inhibition for the following entry. c1ccc(CCCCc2ccccn2)cc1
-13.1

Identify the reported growth inhibition for the following entry. COC(=O)C(/C(=N\O)C(=O)Nc1cccc(Cl)c1C)c1cnc2ccccc2n1 (configuration not stated)
-11.1

Identify the reported growth inhibition for the following entry. O=C1Nc2c(Cl)cc(Cl)cc2C1=O
45.1

Identify the reported growth inhibition for the following entry. Cc1cccc(C)c1OC(=O)/C=C/c1ccccc1
-10.5

Identify the reported growth inhibition for the following entry. CCOC(=O)C1=CC2CCOC2O1 (configuration not stated)
-14.8

Identify the reported growth inhibition for the following entry. CCC(C(=O)O)C(C)(C)O (configuration not stated)
-11.1

Identify the reported growth inhibition for the following entry. ClC(Cl)=C(Cl)C1(Cl)CC1COCc1ccccc1 (configuration not stated)
-10.1

Identify the reported growth inhibition for the following entry. O=C(Cl)c1cc(Cl)cc(Cl)c1Br
4.7

Identify the reported growth inhibition for the following entry. [Cl][Co][Cl].[NH-]CCC[NH-].[NH-]CCC[NH-]
21.3

---

Examples of compounds with documented growth inhibition follow.
# Assay Details: NCI Yeast Anticancer Drug Screen. Data for the bub3 strain (AID 167)
# Measurement Conditions: S. cerevisiae bub3 mutant strain, at 50.0 µM, hits give high values
# Description: Growth inhibition of yeast strains with defined genetic alterations is measured as a screen for potential anti-cancer activity. Selected strains with alterations in DNA damage repair or cell cycle control were exposed to compounds and growth inhibition was measured relative to vehicle treated controls. The strain used in this assay is bub3
About 79,000 compounds went through this panel and 15% of them were active in at least one assay; those are over-represented in the sample as a whole.
Provide the reading as a plain figure in %.

Look over these answered cases.
COc1ccc(CC(N)C(=O)N2CCCCC2)cc1 (stereo not given)
8.4
NC(=O)CC(N)C(=O)NC(Cc1ccccc1)C(=O)NC(Cc1ccccc1)NC(=O)C(Cc1c[nH]c2ccccc12)C(=O)O (stereo not given)
1.85
Nc1ccn(C2OC(CCl)C(O)C2O)c(=O)n1 (stereo not given)
-39.9
CNc1ccc(Cl)cc1C(N)=O
7.05
C=CCCCCCCCCCCCCCCC
-31.9

Identify the reported growth inhibition for the following entry. N#CC(C(=O)O)C1(c2ccccc2)CCCCC1 (stereo not given)
1.1

Identify the reported growth inhibition for the following entry. CCC1=CCN2CCC34c5cc(C6(C(=O)OC)CC7CC(CC)CN(CCc8c6[nH]c6ccccc86)C7)c(OC)cc5N(C)C3C(O)(C(=O)OC)C(OC(C)=O)C1C24 (stereo not given)
-1.55

---

# Assay Details: NCI Yeast Anticancer Drug Screen. Data for the mlh1 rad18 strain (AID 175)
# Measurement Conditions: S. cerevisiae mlh1 rad18 strain growth inhibition; at 50.0 µM; hits give high values
About 79,000 compounds went through this panel and 15% of them were active in at least one assay; those are over-represented in the sample as a whole.
Test Readout: growth inhibition (%)
Provide the reading as a plain figure in %.

Look over these answered cases.
O=C(NC(=O)c1cccc(Cl)c1)Nc1ccccc1
-5.15
CC(C)(C)S(=O)(=O)CCCCl
13.5
CC1=NNC(=O)CC1C(O)c1ccc(F)cc1 (centres undefined)
-1.85
CC1CCC2(C)OC1OC2CN (centres undefined)
-4.65
O=C(COc1c(Cl)c(Cl)c(Cl)c(Cl)c1Cl)Nc1cccc(Cl)c1
22.8

Identify the reported growth inhibition for the following entry. O=C1NCCCC1CCO (centres undefined)
-3.85

Identify the reported growth inhibition for the following entry. C/C(=C\c1ccc(OCCN2CCOCC2)cc1)c1ccc2c(c1)C(C)(C)CCC2(C)C
-25.9

Identify the reported growth inhibition for the following entry. Fc1ccccc1C1CC(c2ccc3ccccc3c2)=Nc2ccccc2S1 (centres undefined)
34.4

Identify the reported growth inhibition for the following entry. c1ccc2c(c1)cc1n2CC2CN=NC12 (centres undefined)
10.1

Identify the reported growth inhibition for the following entry. O=[N+]([O-])c1cccc(Cc2nc3ccccc3nc2-c2ccccc2)c1
37.7

Identify the reported growth inhibition for the following entry. CC1CN(Cc2ccccc2)CCC1N1CCCC1 (centres undefined)
21.4

Identify the reported growth inhibition for the following entry. Oc1cc(N2CCCC2)ccc1/C=N/N1C(=S)N(c2ccccc2)C(=Nc2ccccc2)C1=Nc1ccccc1
-39.9

---

# Assay Details: NCI Yeast Anticancer Drug Screen. Data for the mec2-1 strain (AID 157)
# Measurement Conditions: S. cerevisiae mec2-1 strain, at 50.0 µM, hits give high values
# Description: Growth inhibition of yeast strains with defined genetic alterations is measured as a screen for potential anti-cancer activity. Selected strains with alterations in DNA damage repair or cell cycle control were exposed to compounds and growth inhibition was measured relative to vehicle treated controls. The strain used in this assay is mec2-1
Compounds without any hit were thinned out: in the full panel of roughly 79,000, 15% have a hit.
Test Readout: growth inhibition (%)
Provide the reading as a plain figure in %.

CCOC(=O)C(/C=C/C(C)C)(CC)C(=O)OCC
11.2
O=C1c2ccccc2C(=O)c2c(Nc3ccc(Nc4cccc5c4C(=O)c4ccccc4C5=O)c4c3C(=O)c3ccccc3C4=O)cccc21
-39
CC(C)C(NC(=O)OC(C)(C)C)C(=O)O (stereo unspecified)
1.2
CC1C2CCC3(CCC4C5(C)CCCC4(CN(CCO)C5)C3C2)C1O (stereo unspecified)
-24.4
CC(O)C1OC(=O)C(O)C1O (stereo unspecified)
4.95

Identify the reported growth inhibition for the following entry. COC(=O)C1=C(O)/C(=C\c2ccccc2)NC1=O
-11.3

---

# Assay Details: NCI Yeast Anticancer Drug Screen. Data for the rad50 strain (AID 155);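 note: 0% = growth of vehicle-only cultures of the same strain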
# Measurement Conditions: S. cerevisiae rad50 strain growth inhibition; at 50.0 µM; hits give high values
This is part of a sample that, as a whole, favours compounds with a hit. Of some 79,000 tested, about 15% had one in any assay.
Examples of compounds with documented growth inhibition follow.
Provide the reading as a plain figure in %.

Identify the reported growth inhibition for the following entry. CC(=O)Nc1cc(=O)[nH]c2c1CCC2
-4.05
